biological target: CETP (Homo sapiens, UniProt P11597); construct: The CETP activity in this plasma was measured with Cholesteryl Ester Transfer Protein Activity kit; assay: CETP inhibitory action in human plasma (Roar Biomedical CETP Activity kit, fluorescence); settings: human plasma incubated with compound at 37° C. for 4 hours; read-out: IC50 (concentration inhibiting the CETP activity by 50%)
Sequence (P11597 18-493): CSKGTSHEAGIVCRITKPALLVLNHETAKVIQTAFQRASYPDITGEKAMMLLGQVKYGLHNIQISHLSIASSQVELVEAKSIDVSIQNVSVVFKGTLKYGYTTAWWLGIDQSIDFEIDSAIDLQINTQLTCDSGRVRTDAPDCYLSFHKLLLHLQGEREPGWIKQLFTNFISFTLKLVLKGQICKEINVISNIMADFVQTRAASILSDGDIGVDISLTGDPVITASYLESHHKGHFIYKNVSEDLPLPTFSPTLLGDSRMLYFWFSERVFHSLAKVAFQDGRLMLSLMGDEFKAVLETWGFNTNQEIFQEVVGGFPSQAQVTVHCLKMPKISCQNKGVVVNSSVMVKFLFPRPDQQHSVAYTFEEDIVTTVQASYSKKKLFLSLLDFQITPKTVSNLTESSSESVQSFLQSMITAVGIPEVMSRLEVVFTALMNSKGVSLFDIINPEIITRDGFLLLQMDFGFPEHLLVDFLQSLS
pIC50: −log10 of the molar value.
readout_type: pIC50

- compound: "CCN(CC1CCCC1)c1nc2ccccc2cc1CN(Cc1cc(C(F)(F)F)cc(C(F)(F)F)c1)c1ncccn1 [Comparative Compound 2, reference compound]"
  study_system: "CETP (Homo sapiens, UniProt P11597)"
  pIC50: 4.70

I. CCN(CC1CCCC1)c1ccc(OC)nc1CN(Cc1cc(C#N)cc(C#N)c1)c1ncc(OCCS(C)(=O)=O)cn1 [Example 42]
II. CCN(CC1CCCC1)c1ccc(OC)nc1CN(Cc1cc(C#N)cc(C(F)(F)F)c1)c1ncc(OCCS(C)(=O)=O)cn1 [Example 10]
Exam item: Just tell me: smaller pIC50 value, I or II ? Use the label to indicate which entry you chose.
Marked response: I

----------
molecular target: CETP (Homo sapiens, UniProt P11597); construct: The CETP activity in this plasma was measured with Cholesteryl Ester Transfer Protein Activity kit; assay: CETP inhibitory action in human plasma (Roar Biomedical CETP Activity kit, fluorescence); details: human plasma incubated with compound at 37° C. for 4 hours; read-out: IC50 (concentration inhibiting the CETP activity by 50%)
pIC50: −log10 of the molar value.
readout_type: pIC50

Some solved entries appear below for comparison.
- compound: "CCN(CC1CCCC1)c1ccc(OC)nc1CN(Cc1cc(C(F)(F)F)cc(C(F)(F)F)c1)c1ncc(OCC[S+](C)[O-])cn1 (stereo not drawn)"
  pIC50: 6.46
- compound: "CCN(CC1CCCC1)c1nc(C)c(C)cc1CN(Cc1cc(C(F)(F)F)cc(C(F)(F)F)c1)c1nnn(C)n1 [Comparative Compound 3, reference compound]"
  pIC50: 5.82

I. CCN(CC1CCCC1)c1nc2ccccc2cc1CN(Cc1cc(C(F)(F)F)cc(C(F)(F)F)c1)c1nnn(C)n1 [Comparative Compound 1, reference compound]
II. CCN(CC1CCCC1)c1ccc(OC)nc1CN(Cc1cc(C#N)cc(C(F)(F)F)c1)c1ncc(OCC[S+](C)[O-])cn1 (stereo not drawn)
III. CCN(CC1CCCC1)c1ccc(OC)nc1CN(Cc1cc(C#N)cc(C#N)c1)c1ncc(OCC[S+](C)[O-])cn1 (stereo not drawn)
IV. CCN(CC1CCCC1)c1ccc(OC)nc1CN(Cc1cc(C(F)(F)F)cc(C(F)(F)F)c1)c1ncc(OCCS(C)(=O)=O)cn1
Exam item: Sequence the entries by pIC50, beginning with the highest number. Order the labels as requested and give them as your answer.
Marked response: II, IV, III, I

# credit: patent US7750019B2
